What cell viability was measured for each of the following?
test system: Vero E6; assay: cell viability relative to DMSO; higher = less toxic; settings: 72 h; 100 nM
Please respond with the number in % and leave the unit unwritten.

INPUT: Would you kindly share the measured cell viability for CC(=O)N(O)C/C=C/c1cccc(Oc2ccccc2)c1 [BW-A4C] ?
OUTPUT: 109

INPUT: Now the compound CC(=O)N[C@@H](CC(=O)O)C(=O)N[C@@H](CCC(=O)O)C(=O)O [spaglumic-acid]
OUTPUT: 101

INPUT: Now the compound Cc1c(N)nc([C@H](CC(N)=O)NC[C@H](N)C(N)=O)nc1C(=O)N[C@H](C(=O)N[C@H](C)[C@@H](O)[C@H](C)C(=O)N[C@H](C(=O)NCCc1nc(-c2nc(C(=O)NCCC[S+](C)C)cs2)cs1)[C@@H](C)O)[C@@H](OC1OC(CO)C(O)C(O)C1OC1OC(CO)C(O)C(OC(N)=O)C1O)c1cnc[nH]1 (stereo not given in full) [bleomycin]
OUTPUT: 97.5

INPUT: Now the compound NC(=O)c1cccc2cn(-c3ccc([C@@H]4CCCNC4)cc3)nc12 [niraparib]
OUTPUT: 102

INPUT: Now the compound Cc1cc(O)c2c(c1)C(=O)c1cccc(O)c1C2=O [chrysophanic-acid]
OUTPUT: 100

INPUT: Now the compound C[C@@H]1NC(=O)[C@@H](N)CNC(=O)[C@H](C2CCNC(=N)N2)NC(=O)/C(=C/NC(N)=O)NC(=O)[C@H](CNC(=O)CC(N)CCCN)NC1=O.N=C1NCC[C@H]([C@@H]2NC(=O)/C(=C/NC(N)=O)NC(=O)[C@H](CNC(=O)C[C@@H](N)CCCN)NC(=O)[C@H](CO)NC(=O)[C@@H](N)CNC2=O)N1 [capreomycin]
OUTPUT: 102

INPUT: Now the compound CCCCC[C@H](O)/C=C/[C@H]1[C@H](O)CC(=O)[C@@H]1C/C=C\CCCC(=O)O [dinoprostone]
OUTPUT: 101

INPUT: Now the compound CN1CCC(=C2c3ccccc3CC(=O)c3sccc32)CC1 [ketotifen]
OUTPUT: 96.4

INPUT: Now the compound Cc1ncc(C[n+]2csc(CCOP(=O)(O)OP(=O)(O)O)c2C)c(N)n1 [thiamine-pyrophosphate]
OUTPUT: 92.6

INPUT: Now the compound C=CC(=O)Nc1cccc(Nc2nc(Nc3ccc(NC4CN(CCF)C4)cc3OC)ncc2C(F)(F)F)c1 [CNX-2006]
OUTPUT: 101

INPUT: Now the compound NCCCC[C@H](N)C(=O)O [L-lysine]
OUTPUT: 99.6

INPUT: Now the compound C[C@H](N)C(=O)N[C@@H](CCC(N)=O)C(=O)O [dipeptamin]
OUTPUT: 94.1

INPUT: Now the compound CCCc1nc(C)c2c(=O)nc(-c3cc(S(=O)(=O)N4CCN(CC)CC4)ccc3OCC)[nH]n12 [vardenafil]
OUTPUT: 102

INPUT: Now the compound CNCc1ccc(C)c(NC(=O)c2ccc(Nc3nc(-c4ccccc4)c4ccccc4n3)cc2)c1
OUTPUT: 100

INPUT: Now the compound CCC(N)C(O)c1ccc(O)c(O)c1 (stereo not given) [ethylnorepinephrine]
OUTPUT: 104

INPUT: Now the compound CC[C@H](C)C(=O)O[C@H]1C[C@@H](C)C=C2C=C[C@H](C)[C@H](CC[C@@H]3C[C@@H](O)CC(=O)O3)[C@H]21 [lovastatin]
OUTPUT: 96.2

INPUT: Now the compound CC(=O)O[C@H]1C[C@@H]2CC[C@@H]3[C@H](CC[C@@]4(C)[C@H]3C[C@H](N3CC[N+](C)(C)CC3)[C@@H]4OC(C)=O)[C@@]2(C)C[C@@H]1N1CC[N+](C)(C)CC1 [pipecuronium]
OUTPUT: 92.5

INPUT: Now the compound Cc1cccc(Nc2ccncc2S(=O)(=O)NC(=O)NC(C)C)c1 [torasemide]
OUTPUT: 102

INPUT: Now the compound C#CC1(OCC(O)CN2CCN(c3cccc(C(F)(F)F)c3)CC2)CCCCC1 (stereo not given) [terciprazine]
OUTPUT: 104

INPUT: Now the compound NC1=N[C@@](c2cccc(-c3cncnc3)c2)(c2ccnc(C(F)F)c2)c2cccc(F)c21 [AZD3839]
OUTPUT: 99.9

INPUT: Now the compound Cc1cc(C)c(N(Cc2ccccc2)S(=O)(=O)c2ccc(OCCNC(=O)c3cc4ccccc4o3)cc2)c(C(=O)NO)c1
OUTPUT: 105

INPUT: Now the compound C[C@H]1CN(C[C@H](Cc2ccccc2)C(=O)NCC(=O)O)CC[C@@]1(C)c1cccc(O)c1 [alvimopan]
OUTPUT: 94.8

INPUT: Now the compound COc1cccc(-n2nc(C(=O)O)cc2-c2ccc(C3CCCCC3)c(Cl)c2)c1 [TC-LPA5-4]
OUTPUT: 103

INPUT: Now the compound Cc1cc(CN2CCN(c3c(Br)cnc4nc(-c5ccc(N6CCN(C)CC6)cc5)[nH]c34)CC2)no1
OUTPUT: 94.1

INPUT: Now the compound CCc1ccc(/C=C/C(=O)Nc2ccc(C(C)=O)cc2)o1 [heclin]
OUTPUT: 98.9

INPUT: Now the compound [O-][n+]1ccccc1[S-].[O-][n+]1ccccc1[S-].[Zn+2] [pyrithione-zinc]
OUTPUT: 94.4

INPUT: Now the compound CCOC(=O)[C@H](CCc1ccccc1)N[C@@H](C)C(=O)N1Cc2cc(OC)c(OC)cc2C[C@H]1C(=O)O [moexipril]
OUTPUT: 96.6

INPUT: Now the compound Cc1onc(-c2ccccc2Cl)c1C(=O)N[C@@H]1C(=O)N2[C@@H]1SC(C)(C)[C@@H]2C(=O)O [cloxacillin]
OUTPUT: 99.7

INPUT: Now the compound CC(C[N+](C)(C)C)OC(N)=O (stereo not given) [bethanechol]
OUTPUT: 103

INPUT: Now the compound CC(=O)/N=c1/sc(S(N)(=O)=O)nn1C [methazolamide]
OUTPUT: 98.2

----------
tested on: Vero E6; test: cell viability relative to DMSO; higher = less toxic; details: 72 h; 1 nM
What cell viability was measured for each of the following?
Please respond with the number in % and leave the unit unwritten.

INPUT: Please provide the recorded cell viability for O=C(O)Cn1nnc(-c2cc(N3CCC(Oc4cc(F)ccc4Br)CC3)no2)n1 , tested on Vero E6.
OUTPUT: 98.3

INPUT: Now the molecule CCc1ccc(C(=O)C(C)CN2CCCCC2)cc1 (stereo unspecified)
OUTPUT: 105

INPUT: Now the molecule CN(Cc1cc(Br)cc(Br)c1N)C1CCCCC1
OUTPUT: 110

INPUT: Now the molecule Cc1ccc(S(=O)(=O)Nc2ccc3c(c2)c(C(=O)C(F)(F)F)cn3CC(=O)N[C@@H](CC(C)C)C(=O)O)cc1
OUTPUT: 96.9

INPUT: Now the molecule CCN1C[C@]2(COC(=O)c3ccccc3N3C(=O)C[C@H](C)C3=O)CC[C@H](OC)[C@@]34[C@@H]5C[C@H]6[C@H](OC)[C@@H]5[C@](O)(C[C@@H]6OC)[C@](O)([C@@H](OC)[C@H]23)[C@@H]14
OUTPUT: 104

INPUT: Now the molecule CN(C)[C@@H]1C(O)=C(C(N)=O)C(=O)[C@@]2(O)C(O)=C3C(=O)c4c(O)ccc(Cl)c4[C@@H](O)[C@H]3C[C@@H]12
OUTPUT: 98.1

INPUT: Now the molecule O=C(O)C(O)Cc1ccc(O)c(O)c1 (stereo unspecified) [sodium-danshensu]
OUTPUT: 101

INPUT: Now the molecule CC[C@H]1OC(=O)[C@@](C)(F)C(=O)[C@H](C)[C@@H](O[C@@H]2O[C@H](C)C[C@H](N(C)C)[C@H]2O)[C@](C)(OC)C[C@@H](C)C(=O)[C@H](C)[C@H]2N(CCCCn3cc(-c4cccc(N)c4)nn3)C(=O)O[C@]12C
OUTPUT: 98.2

INPUT: Now the molecule COC(=O)C1=C(C)NC(C)=C(C(=O)OC)C1c1ccccc1[N+](=O)[O-]
OUTPUT: 99.5

INPUT: Now the molecule CN(C)c1ccc(/C=C2\CCCN=C2c2cccnc2)cc1
OUTPUT: 105

INPUT: Now the molecule COc1c(C)cnc(Cn2cc(C#CCC(C)(C)O)c3c(Cl)nc(N)nc32)c1C
OUTPUT: 99.3

INPUT: Now the molecule CN1CCCC(n2nc(Cc3ccc(Cl)cc3)c3ccccc3c2=O)CC1 (stereo unspecified)
OUTPUT: 108

INPUT: Now the molecule O=C(O)c1cccnc1C(=O)O
OUTPUT: 108

INPUT: Now the molecule COc1ccccc1N1CCN(CCN(C(=O)C2CCCCC2)c2ccccn2)CC1
OUTPUT: 104

INPUT: Now the molecule CCOC(=O)c1ccc(N)cc1
OUTPUT: 103

INPUT: Now the molecule Cc1ncc(C[n+]2csc(CCOP(=O)(O)OP(=O)(O)O)c2C)c(N)n1 [thiamine-pyrophosphate]
OUTPUT: 91.8
